Values of IC50 for Hepatocyte growth factor receptor (Homo sapiens), collected from a number of published sources:
measuredEndpoint: IC50

> print(dat)
                                   molecule        reading
1  COc1cc2nccc(Oc3c(F)cc(NC(=O)c4nnccc4OC4CC4)cc3F)c2cc1OC       ≤ 100 nM
2  O=C(c1cnc2c(c1)N(Cc1cc(Cl)ccc1Cl)CCN2)N1CCC(O)(c2ccc(Cl)cc2)CC1    > 100000 nM
3  COc1ccc(F)cc1C(C)Oc1cc(-c2ncsc2CO)cnc1N (centres unmarked)     > 20000 nM
4  O=C(Nc1ccc(Oc2ccnc(NC(=O)C3CC3)c2)cn1)c1c2n(n(-c3ccccc3)c1=O)CCCC2           5 nM
5  CCOC(=O)Nc1cccc(Cn2nc(-c3ccc(Cl)cc3)ccc2=O)c1  10 to 1000 nM
6  COc1cc(-c2cc3c(s2)Cc2c(-c4ccc5cnn(C)c5c4)n[nH]c2-3)ccc1CN1CCOCC1      > 1000 nM
7  CCOC(=O)Nc1cccc(Cn2nc(-c3ccc(-c4noc(C)n4)cc3)ccc2=O)c1  10 to 1000 nM
8  CCOC(=O)Nc1cccc(Cn2nc(-c3ccc(OCCCCNC(=O)OC(C)(C)C)cc3)ccc2=O)c1  10 to 1000 nM

###

pIC50: −log10 of the molar value.
Values of pIC50 for Hepatocyte growth factor receptor (Homo sapiens, UniProt P08581), collected from a number of published sources:
measuredEndpoint: pIC50

> print(dat)
                          structurenotation       reading
1  CCOC(=O)CCNC(=O)c1ccc(-c2ccc(=O)n(Cc3cccc(NC(=O)OCC)c3)n2)cc1  6.00 to 8.00
2  COc1cccc(-c2ccc3nnc(Sc4ccc5nc(NC(=O)C6CC6)cn5n4)n3c2)n1        > 7.52
3  Cn1cnc2cc(C(=O)Nc3ccc(Oc4ccnc(N)c4Cl)c(F)c3)c(=O)n(-c3ccc(F)cc3)c21  7.00 to 8.00
4  COC1CN(Cc2ccc(-c3cc4c(s3)Cc3c(-c5ccc6cnn(C)c6c5)n[nH]c3-4)cc2)C1  6.00 to 6.52

###

Values of IC50 for Hepatocyte growth factor receptor (Homo sapiens), collected from a number of published sources:
measuredEndpoint: IC50

> print(dat)
                                    molecule             reading
 1  Cc1cccc(-c2ccc3nnc(Cc4ccc5ncccc5c4)n3n2)c1            < 100 nM
 2    O=S(=O)(c1cc(F)ccc1F)N1CCNc2ncc(I)cc21  10000 to 100000 nM
 3  CCOC(=O)Nc1cccc(Cn2nc(-c3ccc(CNC(=O)COC)cc3)ccc2=O)c1       10 to 1000 nM
 4  CCOc1ccn(-c2ccc(F)cc2)c(=O)c1C(=O)Nc1ccc(Oc2ccnc3cc(OCCCN4CCC(C)(O)CC4)c4c(c23)OCCO4)c(F)c1             ≤ 50 nM
 5  Nc1ncc(-c2cnn(C3CCNCC3)c2)cc1-c1oc2ccccc2c1-c1cccc(F)c1F      100 to 1000 nM
 6  CCOc1ccn(-c2ccc(F)cc2)c(=O)c1C(=O)Nc1ccc(Oc2ccnc3cc(OCCCN4CCC(C)(N)CC4)c4c(c23)OCCO4)c(F)c1             ≤ 50 nM
 7  CCOC(=O)c1ccc(-c2cnc3c(c2)N(Cc2cc(F)ccc2F)CCN3)cc1         > 100000 nM
 8  O=c1sc2ccc(Br)cc2n1Cc1cccc(-c2ncc(OCCN3CCOCC3)cn2)c1       10 to 1000 nM
 9  Oc1ccc(F)c(Cc2c[nH]c3ncc(-c4cccnc4)cc23)c1F          ≤ 10000 nM
10  COc1ccc(F)cc1C(C)Oc1cc(-c2c(C)n[nH]c2C)cnc1N (centres unmarked)             6740 nM
11  NC(=O)c1ccc(-c2cnc(N)c(-c3nc4ccccc4s3)c2)cc1    1000 to 20000 nM
12  Nc1ncc(-c2cccc(C(=O)N3CCC(F)(F)C3)c2)cc1-c1nc2ccccc2s1    1000 to 20000 nM
13  CN(C)CCCOc1ccc(-c2cnc(N)c(-c3nc4ccccc4s3)c2)cn1    1000 to 20000 nM
14  C[C@H](O)COc1ccc2c(Oc3c(F)cc(NC(=O)c4cnccc4OC4CC4)cc3F)ccnc2c1            ≤ 100 nM
15  CC(c1cccc(NC(=O)OCCCN2CCOCC2)c1)N1N=C(c2ccc(F)c(F)c2)CSC1=O (centres unmarked)       10 to 1000 nM
16       Cc1ccc2nnc(Sc3ccc4ncc(Br)cc4c3)n2n1      100 to 1000 nM
17  Nc1ncc(-c2cnn(C3CCNCC3)c2)cc1N1CCc2c(F)ccc(F)c2C1      100 to 1000 nM

###

pIC50: −log10 of the molar value.
Values of pIC50 for Hepatocyte growth factor receptor (Homo sapiens, UniProt P08581), collected from a number of published sources:
measuredEndpoint: pIC50

> print(dat)
                                   compound  measuredendpoint       reading
1  CNCCOc1cc2nccc(Oc3c(F)cc(NC(=O)c4cnccc4OC4CCC4)cc3F)c2cc1OC             pIC50        ≥ 7.00
2        CCN(CC)c1ccc(Nc2cnc3[nH]ccc3c2)cc1             pIC50        ≥ 5.00
3  COCCOc1cc2nccc(Oc3c(F)cc(NC(=O)c4cnccc4OC)cc3F)c2cc1OCCOC             pIC50        ≥ 7.00
4  COc1ccc(F)cc1C(C)Oc1nc(-c2nccn2C)cnc1N (centres unmarked)             pIC50        < 4.70
5  O=C(Nc1cn2nc(C(F)(F)c3nnc4ccc(-c5ccc(F)cc5)cn34)ccc2n1)C1CC1             pIC50        > 7.52
6  Cn1cc(-c2cc(Oc3ccc(NC(=O)Nc4cc(C(C)(C)C)nn4-c4ccc(CO)cc4)c(F)c3)ccn2)cn1             pIC50        > 7.00
7         Fc1cc(F)c(CN2CCNc3ncc(I)cc32)cc1F             pIC50  4.00 to 5.00
8  Cn1ncc2ccc(-c3n[nH]c4c3Cc3sc(-c5ccc(CN6CCOCC6)cc5OC(F)(F)F)cc3-4)cc21             pIC50        < 6.00

###

pIC50: −log10 of the molar value.
Values of pIC50 for UniProtKB P08581, collected from a number of published sources:
measuredEndpoint: pIC50

> print(dat)
                                    compound       reading
 1  Cc1nc(-c2cccc(Cn3c(=O)sc4ccc(Cl)cc43)c2)no1  6.00 to 8.00
 2  O=C(NC(c1ccccc1)c1ccccc1)c1cnc2c(c1)N(Cc1cc(Cl)ccc1Cl)CCN2  4.00 to 5.00
 3  Nc1ncc(-c2ccc(C(=O)N3CCCCC3)cc2)cc1-c1nc2ccccc2s1        < 4.70
 4  COc1ccc(F)cc1C(C)Oc1cc(-c2ccnn2CCO)cnc1N (stereo not drawn)        < 4.70
 5  CC(C)c1cncc(NC(=O)Nc2ccc(Oc3ccnc(-c4cnn(C)c4)c3)cc2F)c1        > 6.00
 6  Cn1cnc2cc(C(=O)Nc3ccc(Oc4ccnc5[nH]ccc45)c(F)c3)c(=O)n(-c3ccc(F)cc3)c21  7.00 to 8.00
 7  Cn1cc(-c2ccc3nnc(Sc4ccc5ncsc5c4)n3n2)cn1        > 7.00
 8  O=C(Nc1cn2nc(C(F)(F)c3nnc4ccc(-c5cccnc5)cn34)ccc2n1)C1CC1  7.23 to 7.52
 9  O=C(O)c1ccc(-c2cnc3c(c2)N(Cc2c(F)ccc(F)c2Cl)C(=O)CN3)cc1  4.00 to 5.00
10    CC1(C)Nc2ncc(I)cc2N(Cc2cc(F)ccc2F)C1=O        < 4.00
11                   CC1(C)Nc2ncc(I)cc2NC1=O  4.00 to 5.00
12  COC(=O)c1cccc(-c2cnc3c(c2)N(Cc2ccccc2)C(=O)CN3)c1  4.00 to 5.00
13  Fc1cccc(-c2cnc3nnc(Sc4ccc5ncccc5c4)n3n2)c1        > 7.00
14  CN(C)/C=N/c1cnc(-c2cccc(CN3N=C(c4nccs4)CSC3=O)c2)nc1  6.00 to 8.00
15  CCNCCCOC(=O)Nc1cccc(CN2N=C(c3ccc(C#N)cc3)CSC2=O)c1  6.00 to 8.00
16  CCOc1ccn(-c2ccc(F)cc2)c(=O)c1C(=O)Nc1ccc(Oc2ccnc3cc(OCCCN4CCN(C(C)=O)CC4)c4c(c23)OCCO4)c(F)c1        ≥ 7.30
17  O=C(NCCOc1ccccc1)c1cnc2c(c1)N(Cc1cc(Cl)ccc1Cl)CCN2  4.00 to 5.00
18  CN[C@H](C)c1nn2c(Cc3ccc4ncc(-c5cnn(C)c5)cc4c3)nnc2s1  6.00 to 7.00
